Target system: UniProt:P21462
Sequence (P21462 whole entry): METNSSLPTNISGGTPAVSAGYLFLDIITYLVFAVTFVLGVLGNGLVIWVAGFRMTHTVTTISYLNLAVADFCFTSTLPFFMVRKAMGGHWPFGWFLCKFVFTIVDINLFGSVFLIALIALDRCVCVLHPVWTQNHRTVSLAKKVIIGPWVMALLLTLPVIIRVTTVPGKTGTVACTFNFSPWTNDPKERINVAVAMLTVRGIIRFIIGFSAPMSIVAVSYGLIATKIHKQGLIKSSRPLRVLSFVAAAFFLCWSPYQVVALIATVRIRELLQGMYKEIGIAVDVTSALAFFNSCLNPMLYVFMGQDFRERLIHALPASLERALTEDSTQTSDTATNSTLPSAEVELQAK
Test details: FPR1 cyclic adenosine monophosphate (cAMP) assay
Settings: CHO cells overexpressing human FPR1; forskolin 10 μM; inhibition of cAMP production; HTRF; read-out: hFPR1 cAMP2 EC50
Measurement kind: EC50 (µM)

Prompt line: Fill in: EC50 of COc1cc(F)c(-c2c(NC(=O)c3ccc(OC(F)F)cc3)c(=O)n(-c3cccc(N(C)C)n3)n2C)c(F)c1 [Example 82] is ___
Response line: 0.52

P = COc1cc(F)c(-c2c(NC(=O)c3ccc(OC(F)F)cc3)c(=O)n(-c3cncc(OC)n3)n2C)c(F)c1 [Example 71]
Q = COc1cc(F)c(-c2c(NC(=O)c3ccc(OC(F)F)cc3)c(=O)n(-c3nc(N4CC(C)(O)C4)ccc3F)n2C)c(F)c1 [Example 210]
Prompt line: Among P and Q , whose measured EC50 is the smaller figure? Please reply using the label of the selected record.
Response line: P

A = COc1cc(F)c(-c2c(NC(=O)c3ccc(OC(F)F)cc3)c(=O)n(-c3ccnc(OC)c3)n2C)c(F)c1 [Example 115]
B = COc1cc(F)c(-c2c(NC(=O)c3ccc(OC(F)F)cc3)c(=O)n(-c3cccc(C(F)F)n3)n2C)c(F)c1 [Example 67]
Prompt line: Among A and B , whose measured EC50 is the smaller figure? Please reply using the label of the selected record.
Response line: A
